B1: LINE1-mini (parent)
chain: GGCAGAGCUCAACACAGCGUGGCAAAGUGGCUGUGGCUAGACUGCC

- Variants of: B1
- Assay info: self-cleavage, relative activity (ratio to wild type); higher = more cleavage; in vitro, sequencing; the parent is a self-cleaving ribozyme
Result type: self-cleavage
Just the number, please, no unit attached.

[in] Form field: reported self-cleavage of U38A G44A
[out] 0.28

[in] Form field: reported self-cleavage of C13A G35A
[out] 0.15

[in] Form field: reported self-cleavage of A12U C42A
[out] 0.06

[in] Form field: reported self-cleavage of A24C C45U
[out] 0.7

[in] Form field: reported self-cleavage of G21C A26U
[out] 1.57

[in] Form field: reported self-cleavage of U9A G19C
[out] 0.06

[in] Form field: reported self-cleavage of G1A C23U
[out] 1.29

[in] Form field: reported self-cleavage of G7U G33C
[out] 0.15

[in] Form field: reported self-cleavage of G7C A25G
[out] 0.06

[in] Form field: reported self-cleavage of G7C G30C
[out] 0.13

[in] Form field: reported self-cleavage of C3U G35A
[out] 0.22

[in] Form field: reported self-cleavage of G5U A39U
[out] 0.11

[in] Form field: reported self-cleavage of C8A G40C
[out] 0.22

[in] Form field: reported self-cleavage of G36U C46A
[out] 0.1

[in] Form field: reported self-cleavage of C18G G27U
[out] 0.61

[in] Form field: reported self-cleavage of G21C A39C
[out] 0.07

[in] Form field: reported self-cleavage of G17A U43A
[out] 0.08

[in] Form field: reported self-cleavage of A6C A12C
[out] 0.06

[in] Form field: reported self-cleavage of C3U C8G
[out] 0.15

[in] Form field: reported self-cleavage of G22A A39U
[out] 0.5

[in] Form field: reported self-cleavage of G30U G33A
[out] 0.08

[in] Form field: reported self-cleavage of C3A U9C
[out] 0.05

[in] Form field: reported self-cleavage of A14C U43C
[out] 0.04

[in] Form field: reported self-cleavage of C23G C31U
[out] 0.2

[in] Form field: reported self-cleavage of C31U A39G
[out] 0.05

[in] Form field: reported self-cleavage of G40A C42A
[out] 0.1

[in] Form field: reported self-cleavage of C15U U43A
[out] 0.14

[in] Form field: reported self-cleavage of A11U U20C
[out] 0.07

[in] Form field: reported self-cleavage of G35C G36U
[out] 0.09

[in] Form field: reported self-cleavage of A16C G29A
[out] 0.57

[in] Form field: reported self-cleavage of C3G A26U
[out] 0.56

[in] Form field: reported self-cleavage of U38C G40A
[out] 0.07

[in] Form field: reported self-cleavage of C3G G7U
[out] 0.22

[in] Form field: reported self-cleavage of C8A G44A
[out] 0.45

[in] Form field: reported self-cleavage of A16C A25G
[out] 0.07

[in] Form field: reported self-cleavage of U20C G29U
[out] 0.4

[in] Form field: reported self-cleavage of C23A C46A
[out] 0.98

[in] Form field: reported self-cleavage of C15G G17U
[out] 0.05

[in] Form field: reported self-cleavage of C13U A16C
[out] 0.1

[in] Form field: reported self-cleavage of U20G G22U
[out] 0.51

[in] Form field: reported self-cleavage of A14U A26C
[out] 0.6

[in] Form field: reported self-cleavage of G30A U32C
[out] 0.21

[in] Form field: reported self-cleavage of G21C U43G
[out] 0.02

[in] Form field: reported self-cleavage of A6G A14G
[out] 0.07

[in] Form field: reported self-cleavage of A16G A24C
[out] 0.13

[in] Form field: reported self-cleavage of C8A G27C
[out] 0.12

[in] Form field: reported self-cleavage of G29U C37G
[out] 0.04

[in] Form field: reported self-cleavage of A12C A14G
[out] 0.04

[in] Form field: reported self-cleavage of G2C A11G
[out] 0.02

[in] Form field: reported self-cleavage of C3A G19C
[out] 0.18

[in] Form field: reported self-cleavage of A4G C37A
[out] 0.06

[in] Form field: reported self-cleavage of G2C A16C
[out] 0.02

[in] Form field: reported self-cleavage of A16C U38C
[out] 0.1

[in] Form field: reported self-cleavage of A25C G27U
[out] 0.46

[in] Form field: reported self-cleavage of U38A C46A
[out] 0.35

[in] Form field: reported self-cleavage of A12G G19U
[out] 0.02

[in] Form field: reported self-cleavage of G29C A39G
[out] 0.03

[in] Form field: reported self-cleavage of A6G G29A
[out] 0.08

[in] Form field: reported self-cleavage of A4C U9C
[out] 0.04

[in] Form field: reported self-cleavage of G1A C10U
[out] 0.35

[in] Form field: reported self-cleavage of U34C G35A
[out] 0.05

[in] Form field: reported self-cleavage of U20G G33A
[out] 0.09

[in] Form field: reported self-cleavage of G7C A39U
[out] 0.15

[in] Form field: reported self-cleavage of G22C G30U
[out] 0.53

[in] Form field: reported self-cleavage of U32A G40C
[out] 0.08

[in] Form field: reported self-cleavage of U28C C37A
[out] 0.03

[in] Form field: reported self-cleavage of G7C U9C
[out] 0.03

[in] Form field: reported self-cleavage of G2A C45A
[out] 1.08

[in] Form field: reported self-cleavage of U20G
[out] 0.69

[in] Form field: reported self-cleavage of G19U G30U
[out] 1.11

[in] Form field: reported self-cleavage of C3U G21U
[out] 0.41

[in] Form field: reported self-cleavage of A4C A12U
[out] 0.17

[in] Form field: reported self-cleavage of A4G A25U
[out] 0.62

[in] Form field: reported self-cleavage of G1A G30C
[out] 1.51

[in] Form field: reported self-cleavage of G33A C45A
[out] 0.1

[in] Form field: reported self-cleavage of A26C U43A
[out] 0.07

[in] Form field: reported self-cleavage of A4U U43A
[out] 0.67

[in] Form field: reported self-cleavage of A6U A11U
[out] 0.09

[in] Form field: reported self-cleavage of A24C A41G
[out] 0.25

[in] Form field: reported self-cleavage of G35U G36U
[out] 0.1

[in] Form field: reported self-cleavage of U43A
[out] 0.11

[in] Form field: reported self-cleavage of G22U
[out] 1.38

[in] Form field: reported self-cleavage of C37A C42G
[out] 0.06

[in] Form field: reported self-cleavage of C13A G21U
[out] 0.23

[in] Form field: reported self-cleavage of C10U A11U
[out] 0.09

[in] Form field: reported self-cleavage of C10A C13U
[out] 0.04

[in] Form field: reported self-cleavage of G21A C31A
[out] 0.12

[in] Form field: reported self-cleavage of G1U C13G
[out] 0.13

[in] Form field: reported self-cleavage of C13U U38C
[out] 0.1

[in] Form field: reported self-cleavage of G35U A41U
[out] 0.14

[in] Form field: reported self-cleavage of G36U A41G
[out] 0.15
